- Measured On: T1, RSV F ectodomain stabilized in the postfusion conformation (F ΔFP), subtype B (Respiratory syncytial virus subtype B, UniProt P13843 26-109; P13843 147-524)
- T1 construct: extracellular domain; trimer; also called Postfusion subtype B
- Assay Procedure: BLI, IgG on AHQ sensors, 100 nM antigen
Output Condition met for records whose Kd is lower than 0.8 nM, Condition not met for records at or above 0.8 nM.

- ADI-14531 (antibody, V domains shown, IgG; also called Antibody Number 91) VH: QVQLVQSGAEVKKPGSSVKVSCKASGVILTSVAVSWVRQAPGKGFEWMGGILPGFNKVRHAQDFENRATHTADASTNTVYMELSGLKSEDTAVYYCAIIDPQDCTRASCFWVNWLAPWGQGTLVTVSS VL: ETTLTQSPGTLTLSPGERATLSCRASQSVPSRNLAWYQQKPGQAPRLIIYAASNRATDIPDRFSGSGSGTDFTLTISRLEPQDFAVYYCQQYETSPITFGQGTKVDIK: Condition not met
- ADI-14554 (antibody, V domains shown, IgG) VH: QVQLVQSGGGLVKPGGSLRLSCAASGFAFSNAWMSWVRQAPGKGLEWLGRIKSETDGGTTDYAAPVKGRFSISRDDSRNTLYLQMNSLESEDTAVYYCTTGPPYKYFDSTGYSVVDYWGQGTLVTVSS VL: SYELTQPPSASGTPGQRVTISCSGSSSNIGSNYVYWYQQLPGTAPRLLIYSTNQRPSGVPDRFSGSQSGTSASLAISGLRSDDEADYYCAAWDDRMSGPVFGGGTKLTVL: Condition met
- ADI-14538 (antibody, V domains shown, IgG; also called Antibody Number 98) VH: EVQLVESGGGVVQPGRSLRLSCAVSGFTFSNFGMHWVRQAPGKGLEWVAAISYDGRKTFQADSVKGRFIISRDNLKNTLNLQMNSLKTEDTAVYYCAKSSRFLDWLYNMDFWGQGTTVTVSS VL: SYELTQPPSVSEAPGKTATITCGGIILGTSSVHWFQQKSGQAPVLVIYYDSDRPSGIPERFSGSHSGDTATLTISRVEVGDEADYYCQVWDNSHSQGVFGGGTQLTVL: Condition met

Item ADI-14547 (antibody, V domains shown, IgG; also called Antibody Number 107) VH: EVQLLESGPVLVKPTETLTLTCTVSGFSLANPDVAVAWIRQPPGKALEWLAHIFSGDETSYTTSLQNRLTISKDTSKSQVVLIMTKMDPRDTGTYFCARVLTTWHGPDYWGQGTTVTVSS VL: ETTLTQSPLSLPVTLGQPASISCRSDQSLVYHNGNTYVSWFHQRPGQSPRRLIYKVSIRDSGVPDRFSGSGSGTDFALKISRVEAEDLGVYYCMQGSHWPHTFGQGTKVDIK : Kd beneath 0.8 nM, strictly? Condition met

Lab note: confirm whether the reported Kd for this binder is below 0.8 nM, equality not counting. binder: ADI-14561 (antibody, V domains shown, IgG) VH: QVQLVQSGAEVKKPGSSVRVTCKASGGTVSDYAITWVRQAPGQGLEWMGGFIPMFGVAKDAEKFQGRVTLTGDKSTNAVYMELSSLTSEDTAVYYCARSKRLPAGLSTSDYYYYYLDVWGKGTTVTVSS VL: EIVLTQSPGTLSLSPGEGATLSCTASQNVFRTHVAWYQQTPGQAPRLLIYGGSTRATGIPDRFSGSGSGTDFTLIISRLEPEDFAVYYCHHFGTTPWTFGQGTKVEIK Condition not met

This collection of values is drawn from patent US20250313612A1.
